test system: DU145 (prostate) cancer cells; test: Whole cell MTS cytotoxicity assay, DU145; assay type: cell-based; conditions: Homo sapiens, DU-145, 72 h, read-out: EC50 DU145
endpoint: EC50 (µM)
Number only, in µM; omit the unit.

Request: Please look at this compound and report its EC50: `Cc1ccc(S(=O)(=O)N(C)CC(=O)N(Cc2ccc(C3CCCCC3)cc2)c2ccc(C(=O)O)c(O)c2)cc1`
Result: 37.2
